Provide the reported GI50 of each item.
System: NCI-H23 lung
Assay info: NCI tumour cell line growth inhibition, 48 h

GET /values?readout=GI50&item= `CN1CCN(c2cc(F)c(NC3=C(Cl)C(=O)c4ncccc4C3=O)c(F)c2)CC1`
1.4 µM

What do we get for `CCCCCCCCCCCC1=NC(C)(C)CN1C(C)C` ?
2.98 µM

What do we get for `COc1cc(-c2csc(NC(=O)Nc3ccc(Cl)cc3)n2)cc(OC)c1OC` ?
2.54 µM

What do we get for `COCCn1c(Nc2ccc(C(=O)NO)cc2)nc2ccccc21` ?
4.43 µM

What do we get for `O=C(O)CN(CCN(CC(=O)O)CC(=O)O)CCN(CC(=O)O)CC(=O)O` ?
2.45 µM

What do we get for `CC[O-].CC[O-].[O-]c1ccccc1C=NC12CC3CC(CC(C3)C1)C2.[O-]c1ccccc1C=NC12CC3CC(CC(C3)C1)C2.[Ti+4]` ?
50 µM

What do we get for `N#Cc1cnc2ccc(NCc3cnc[nH]3)cc2c1Nc1ccc(F)c(Cl)c1` ?
> 100 µM

What do we get for `[Cu].c1ccc2c(c1)C1=NC2=NC2=NC(=NC3=NC(=NC4=NC(=N1)c1ccccc14)c1ccccc13)c1ccccc12` ?
> 100 µM

What do we get for `Clc1ccc2c(NCCCCNc3nc(N4CCOCC4)nc4ccccc34)ccnc2c1` ?
5.68 µM

What do we get for `Clc1cccc(-c2cc(-c3ccc4c(c3)OCCO4)[nH]n2)c1` ?
8.66 µM

What do we get for `O=c1[nH]c(=O)n(Cc2ccc(C34CC5CC(CC(C5)C3)C4)c(O)c2)cc1F` ?
12.5 µM

What do we get for `COc1ccc2c(c1[N+](=O)[O-])CC[C@@H]1[C@@H]2CC[C@]2(C)C(=O)CC[C@@H]12` ?
679 µM

What do we get for `CN1CCN(c2ccc3nc(-c4[nH]ncc4Nc4ncnc5[nH]ccc45)[nH]c3c2)CC1` ?
0.517 µM

What do we get for CCCCCCCCCCCC(c1ccccc1)[N+](C)(C)C (stereo not given) ?
1 µM

What do we get for `CCN(Cc1ccccc1)c1ccc(/C=C2\COc3ccccc3C2=O)cc1` ?
818 µM

---

Tested on: SF-539 CNS
Assay info: NCI tumour cell line growth inhibition, 48 h
Would you mind labelling by TGI? At or over 10 µM is class 1, under is class 0.

Check this compound for TGI at or above 10 µM: Fc1ccc(/C=C2\COCC3=C2NC(=S)NC3c2ccc(F)cc2)cc1 (centres undefined)
class 1

What do we get for `c1ccc(C/C(=N\Nc2nc3ccccc3[nH]2)c2ccccn2)cc1` ?
class 0

What do we get for `C/C(=N/NC(=S)N1CCCCCC1)c1cccc(/C(C)=N\NC(=S)N2CCCCCC2)n1` ?
class 0

What do we get for CN(C)N1C(=C(C#N)C#N)C(c2ccccc2)CC1C#N (centres undefined) ?
class 1

What do we get for `CC(C)(C)CNCCO` ?
class 1

What do we get for `Cc1c2ccccc2c(/C=N/NC(=O)CSCC(=O)N/N=C/c2c3ccccc3c(C)c3ccccc23)c2ccccc12` ?
class 1

What do we get for `Nc1nc(N)c2cc(-c3cc4ccccc4[nH]3)ccc2n1` ?
class 1

What do we get for `CCN(CC)P(=O)(c1ccc2c(c1)OCCOCCOCCOCCO2)N(CC)CC` ?
class 1

What do we get for `Clc1ccc(NCNC2Nc3ccccc3N2)cc1Cl` ?
class 1

What do we get for `N#C/C=C(/NC(=O)Nc1ccccc1)N1CCCC1` ?
class 1

What do we get for `CN1CCN(c2ccc3nc(-c4[nH]ncc4Nc4ncnc5[nH]ccc45)[nH]c3c2)CC1` ?
class 0

What do we get for `CN1CCC2(CC1)C(=O)Nc1cc(NC(=O)c3ccc4c(c3)C[C@@H]3C(C)(C)[C@H](O)[C@H](F)C[C@@]3(C)O4)ccc12` ?
class 1

What do we get for `CC(C)(Sc1cc(C(C)(C)C)c(O)c(C(C)(C)C)c1)Sc1cc(C(C)(C)C)c(O)c(C(C)(C)C)c1` ?
class 1

What do we get for `CCCSc1ccc2[nH]c(N3C(=O)/C(=C/c4ccc(O)c(OC)c4)N=C3c3ccccc3)cc2c1` ?
class 1

What do we get for CCN(CC)CCN1C(=O)C2C3C(C)=CC(OC(C)=O)(CC3C)C2C1=O (centres undefined) ?
class 1

What do we get for `CCCCOc1ccc(/C=C/C2=[N+](CCO)CCO2)cc1` ?
class 1

What do we get for `N#CSc1c[nH]c2ccc(/C=C/C(=O)/C=C(O)/C=C/c3ccc4[nH]cc(SC#N)c4c3)cc12` ?
class 1

What do we get for `O=C1CN=C(c2ccccc2)c2ccncc2N1` ?
class 1

What do we get for `CC(C)OC(=O)Nc1c([N+](=O)[O-])cc(C(F)(F)F)cc1[N+](=O)[O-]` ?
class 1
